Data origin, for the record: patent US10501453B2

Assay: Solubility (Table 2)
Conditions: DMSO, organic solvent or mixture
Experimental readout: solubility

Completed entries (count: 2):
1) Fc1ccc2nc(Nc3nnc(-c4ccccc4Cl)o3)sc2c1 [Example 11] : < 2.5 mM
2) COc1ccc(-c2nnc(Nc3nc4ccc(SC)cc4s3)o2)cc1 [Example 18] : < 2.5 mM

According to the records, this compound COc1ccc2nc(Nc3nnc(-c4ccc(Cl)cc4)o3)sc2c1 [Example 10] displays solubility of < 2.5 mM

According to the records, this compound COc1cccc(-c2nnc(Nc3nc4cc(OC)ccc4s3)o2)c1 [Example 15] displays solubility of < 2.5 mM

According to the records, this compound COc1ccc(-c2nnc(Nc3nc4c(OC)cccc4s3)o2)c(OC)c1 [Example 6] displays solubility of 10 mM

According to the records, this compound COc1cccc(-c2nnc(Nc3nc4c(F)cccc4s3)o2)c1 [Example 3] displays solubility of 10 mM

According to the records, this compound COc1ccc(-c2nnc(Nc3nc4c(F)cccc4s3)o2)cc1 [Example 4] displays solubility of 10 mM

====

Biological target: SUMO E2 enzyme, UBC9
Test: Transfer of activated SUMO-1 from SUMO E1 to SUMO E2 enzyme UBC9 (gel-based assay)
Experimental readout: pEC50
# pEC50 = -log10(concentration in molar units)

According to the records, this molecule COc1ccc(-c2nnc(Nc3nc4c(OC)cccc4s3)o2)cc1 [Example 1] displays pEC50 of 4.99

====

Test system: HEK-293 cells
Experiment: Toxicity (Table 2; cytotoxicity in the compound screen)
Experimental readout: Toxicity

1) COc1cccc(-c2nnc(Nc3nc4ccc(F)cc4s3)o2)c1 : > 50%
2) COc1ccc(-c2nnc(Nc3nc4ccc(OC)cc4s3)o2)cc1 : Toxic
3) COc1cccc(-c2nnc(Nc3nc4cc(OC)ccc4s3)o2)c1 : > 50%
4) COc1ccc2nc(Nc3nnc(-c4ccccc4OC)o3)sc2c1 : 30%

Now consider the entry below.
# lookup: "COc1ccc2nc(Nc3nnc(-c4ccc(Cl)cc4)o3)sc2c1" on HEK-293 cells, Toxicity = > 50%

====

Target: SUMO E1 enzyme (Homo sapiens, UniProt Q9UBT2)
Sequence (Q9UBT2 whole entry): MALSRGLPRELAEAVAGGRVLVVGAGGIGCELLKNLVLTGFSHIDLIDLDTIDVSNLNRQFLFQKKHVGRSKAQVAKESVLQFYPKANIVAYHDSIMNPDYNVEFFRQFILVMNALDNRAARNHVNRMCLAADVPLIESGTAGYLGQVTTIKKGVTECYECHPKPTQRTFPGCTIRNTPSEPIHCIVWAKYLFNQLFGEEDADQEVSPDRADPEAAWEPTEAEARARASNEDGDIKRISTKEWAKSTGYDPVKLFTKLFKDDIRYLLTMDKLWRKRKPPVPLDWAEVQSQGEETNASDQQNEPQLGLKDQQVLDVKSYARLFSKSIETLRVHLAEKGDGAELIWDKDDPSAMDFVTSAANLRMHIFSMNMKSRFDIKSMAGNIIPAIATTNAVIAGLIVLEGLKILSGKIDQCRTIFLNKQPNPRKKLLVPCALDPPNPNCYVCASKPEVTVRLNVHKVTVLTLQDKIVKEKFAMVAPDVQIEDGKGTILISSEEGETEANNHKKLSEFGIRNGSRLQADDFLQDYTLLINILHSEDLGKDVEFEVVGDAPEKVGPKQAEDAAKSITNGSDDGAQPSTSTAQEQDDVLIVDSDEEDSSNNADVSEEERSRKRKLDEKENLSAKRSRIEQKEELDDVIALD
Sequence (Q9UBE0 whole entry, further chain): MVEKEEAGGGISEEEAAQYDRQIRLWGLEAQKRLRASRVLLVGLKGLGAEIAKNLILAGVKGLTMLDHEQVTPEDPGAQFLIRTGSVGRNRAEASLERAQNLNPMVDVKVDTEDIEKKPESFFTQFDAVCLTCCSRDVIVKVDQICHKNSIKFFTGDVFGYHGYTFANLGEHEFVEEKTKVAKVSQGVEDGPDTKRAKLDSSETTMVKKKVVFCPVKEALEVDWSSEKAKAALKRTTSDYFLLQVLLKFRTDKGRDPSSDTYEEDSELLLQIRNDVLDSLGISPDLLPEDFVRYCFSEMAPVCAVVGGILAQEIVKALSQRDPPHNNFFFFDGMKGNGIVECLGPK
Test: Thioester formation between SUMO-1 and SUMO E1 enzyme (gel-based assay)
Format: biochemical
Experimental readout: EC50 (nM)
Numbers only here, please. The scale is nM.

According to the records, this compound "COc1ccc(-c2nnc(Nc3nc4c(OC)cccc4s3)o2)cc1" displays EC50 of 1850

====

Experiment: Pharmacokinetic analysis in mice
Details: mouse, in vivo, ip; murine model, 10 mg/kg intraperitoneal dose
Experimental readout: half-life (h)
Numbers only here, please. The scale is h.

According to the records, this molecule "COc1ccc(-c2nnc(Nc3nc4c(OC)cccc4s3)o2)cc1" displays half-life of 1.09

====

Test system: YFP-SUMO1
Assay: YFP-SUMO1 accumulation (cell image) in HEK-293 cells expressing YFP-SUMO1 and pcDNA3.0-SERCA2a
Format: cell-based
Conditions: Homo sapiens, HEK293, 24 hours, increase vs. DMSO
Experimental readout: fold induction at 10 µM

1) COc1ccc(-c2nnc(Nc3nc4c(OC)cccc4s3)o2)c(OC)c1 : 2.93

According to the records, this compound "Fc1ccc(-c2nnc(Nc3nc4c(F)cccc4s3)o2)cc1" displays fold induction at 10 µM of 2.93

According to the records, this compound "COc1ccc(-c2nnc(Nc3nc4cc(OC)c(OC)cc4s3)o2)cc1" displays fold induction at 10 µM of 2.2

According to the records, this compound "COc1ccc(-c2nnc(Nc3nc4c(F)cccc4s3)o2)cc1" displays fold induction at 10 µM of 2.34

According to the records, this compound "Fc1cccc2sc(Nc3nnc(-c4ccccc4)o3)nc12" displays fold induction at 10 µM of 2.2
